assay: Stability in human plasma assessed as compound degradation after 24 hrs by RP-HPLC analysis; format: ADME, cell-free; settings: read-out: Drug degradation
Where a SMILES comes first, the peptide text is derived from it.
property label: metabolised at 24 h (%)
Field: numeric (%). Do not append units.

Measured metabolised at 24 h of N=C(N)NCCCC(NC(=O)C(Cc1c[nH]c2ccccc12)NC(=O)C(Cc1c[nH]c2ccccc12)NC(=O)C(CCCNC(=N)N)NC(=O)C(N)Cc1c[nH]c2ccccc12)C(N)=O (stereo unspecified) (H-WRWWR-NH2; configuration not given here) : 18

###

test system: Escherichia coli; assay: Antibacterial activity against Escherichia coli MTCC 723 assessed as growth inhibition after 18 hrs by CLSI microdilution broth assay; type: functional; details: MTCC 723, 18 h
Where a SMILES comes first, the peptide text is derived from it. [ ]: non-standard residue; d: D form. 3Abz = Nc1cccc(C(=O)O)c1; Orn = NCCC[CH](N)C(=O)O
property label: MIC (µg/mL)
Field: numeric (µg/mL). Do not append units.

Measured MIC of N=C(N)NCCCC(NC(=O)C(Cc1c[nH]c2ccccc12)NC(=O)c1cccc(NC(=O)C(CCCNC(=N)N)NC(=O)C(CCCNC(=N)N)NC(=O)C(N)Cc2c[nH]c3ccccc23)c1)C(N)=O (configuration not stated) (H-WRR[3Abz]WR-NH2; configuration not given here) : 50

Measured MIC of N=C(N)NCCCC(NC(=O)c1cccc(NC(=O)C(CCCNC(=N)N)NC(=O)C(N)Cc2c[nH]c3ccccc23)c1)C(N)=O (configuration not stated) (H-WR[3Abz]R-NH2; configuration not given here) : 200

Measured MIC of NCCCC(NC(=O)C(CCCN)NC(=O)c1cccc(NC(=O)C(Cc2c[nH]c3ccccc23)NC(=O)C(CCCN)NC(=O)C(N)Cc2c[nH]c3ccccc23)c1)C(N)=O (configuration not stated) (H-W[Orn]W[3Abz][Orn][Orn]-NH2; configuration not given here) : 70

Measured MIC of NCCCC(NC(=O)C(Cc1c[nH]c2ccccc12)NC(=O)c1cccc(NC(=O)C(Cc2c[nH]c3ccccc23)NC(=O)C(CCCN)NC(=O)C(N)Cc2c[nH]c3ccccc23)c1)C(N)=O (configuration not stated) (H-W[Orn]W[3Abz]W[Orn]-NH2; configuration not given here) : 20

Measured MIC of N=C(N)NCCCC(N)C(=O)NC(Cc1c[nH]c2ccccc12)C(=O)NC(Cc1c[nH]c2ccccc12)C(=O)Nc1cccc(C(=O)NC(CCCNC(=N)N)C(=O)NC(CCCNC(=N)N)C(N)=O)c1 (configuration not stated) (H-RWW[3Abz]RR-NH2; configuration not given here) : 70

Measured MIC of N=C(N)NCCCC(N)C(=O)NC(Cc1c[nH]c2ccccc12)C(=O)Nc1cccc(C(=O)NC(Cc2c[nH]c3ccccc23)C(=O)NC(CCCNC(=N)N)C(N)=O)c1 (configuration not stated) (H-RW[3Abz]WR-NH2; configuration not given here) : 40

Measured MIC of N=C(N)NCCCC(NC(=O)c1cccc(NC(=O)C(Cc2c[nH]c3ccccc23)NC(=O)C(N)Cc2c[nH]c3ccccc23)c1)C(N)=O (configuration not stated) (H-WW[3Abz]R-NH2; configuration not given here) : 150

Measured MIC of N=C(N)NCCCC(N)C(=O)NC(CCCNC(=N)N)C(=O)NC(Cc1c[nH]c2ccccc12)C(=O)Nc1cccc(C(=O)NC(Cc2c[nH]c3ccccc23)C(=O)NC(CCCNC(=N)N)C(N)=O)c1 (configuration not stated) (H-RRW[3Abz]WR-NH2; configuration not given here) : 17.5

Measured MIC of N=C(N)NCCCC(NC(=O)C(CCCNC(=N)N)NC(=O)c1cccc(NC(=O)C(Cc2c[nH]c3ccccc23)NC(=O)C(N)Cc2c[nH]c3ccccc23)c1)C(N)=O (configuration not stated) (H-WW[3Abz]RR-NH2; configuration not given here) : 120

Measured MIC of NCCCC(N)C(=O)NC(Cc1c[nH]c2ccccc12)C(=O)Nc1cccc(C(=O)NC(Cc2c[nH]c3ccccc23)C(=O)NC(CCCN)C(N)=O)c1 (configuration not stated) (H-[Orn]W[3Abz]W[Orn]-NH2; configuration not given here) : 50

Measured MIC of N=C(N)NCCCC(NC(=O)C(Cc1c[nH]c2ccccc12)NC(=O)C(Cc1c[nH]c2ccccc12)NC(=O)C(CCCNC(=N)N)NC(=O)C(N)Cc1c[nH]c2ccccc12)C(N)=O (configuration not stated) (H-WRWWR-NH2; configuration not given here) : 40

Measured MIC of N=C(N)NCCCC(NC(=O)C(CCCNC(=N)N)NC(=O)c1cccc(NC(=O)C(CCCNC(=N)N)NC(=O)C(Cc2c[nH]c3ccccc23)NC(=O)C(N)Cc2c[nH]c3ccccc23)c1)C(N)=O (configuration not stated) (H-WWR[3Abz]RR-NH2; configuration not given here) : 75
